IC50 reference
test: in vitro; conditions: human
measured_metric: IC50 (nM)

{"given_smiles": "C[C@H]1[C@@H](OC(C)(C)[C@H]2CC[C@@H](C(=O)O)CC2)O[C@@H]2O[C@@]3(C)CC[C@H]4[C@H](C)CC[C@@H]1[C@@]24OO3", "units_label": "nM", "numeric_readout": 16500}
{"given_smiles": "C[C@H]1[C@@H](OCc2ccnc(C(=O)O)c2)O[C@@H]2O[C@@]3(C)CC[C@H]4[C@H](C)CC[C@@H]1[C@@]24OO3", "units_label": "nM", "numeric_readout": 2550}
{"given_smiles": "C[C@H]1[C@H](NCc2ccccc2)O[C@@H]2O[C@@]3(C)CC[C@H]4[C@H](C)CC[C@@H]1[C@@]24OO3", "units_label": "nM", "numeric_readout": 1320}

src = patent US20260242391A1
